Experiment: Serum concentrations of ICI 182780 by radioimmunoassay (pharmacokinetics of monthly i.m. depot)
Type: in vivo, human
Conditions: human, serum, intramuscular, 100 mg, patient 4 (progressive disease), 100 mg dose at entry; read-out: Cmax on entry
readout_name: Cmax (ng/mL)
I only need the number, in ng/mL, no unit after it.

# input For the compound shown here, C[C@]12CC[C@@H]3c4ccc(O)cc4C[C@@H](CCCCCCCCC[S+]([O-])CCCC(F)(F)C(F)(F)F)[C@H]3[C@@H]1CC[C@@H]2O (stereo partly shown) , give the reported Cmax.
# output 1.6

* * *

Assay: Serum concentrations of ICI 182780 by radioimmunoassay (pharmacokinetics of monthly i.m. depot)
Format: in vivo, human
Settings: female, human, serum, intramuscular, no change patients; read-out: Median Cmax at month 6
Experimental: Bridsh Journal of Cancer (1996) 74, 300-308 ? […] The agent was administered as a monthly depot intramuscular injection. […] The study was approved by the ethics committees of each clinical centre. […] Tumour response to therapy was evaluated according to UICC criteria (Hayward et al., 1977). […] Body weight was recorded at each monthly review in the majority of patients. […] The study limit of quantification was 0.68 ng ml-'. […] Prolactin was measured by immunoradiometric assay using reagents supplied by Netria. […]
readout_name: Cmax (ng/mL)
I only need the number, in ng/mL, no unit after it.

# input For the compound shown here, C[C@]12CC[C@@H]3c4ccc(O)cc4C[C@@H](CCCCCCCCC[S+]([O-])CCCC(F)(F)C(F)(F)F)[C@H]3[C@@H]1CC[C@@H]2O (stereo partly shown) , give the reported Cmax.
# output 12.8
